TARGET_OF_ASSAY: Gal(b1-4)GlcNAc(b1-6)GalNAc
EXPERIMENT_SUMMARY: glycan array binding signal (z-score within array); higher = stronger binding
EXPERIMENTAL_PARAMETERS: glycan notation: IUPAC condensed, linker removed
This excerpt belongs to a sample that is enriched for the strongest signals.

{"columns": ["BINDER", "glycan array binding signal (z-score)"],
 "data": [
  ["Ficolin B (Rattus norvegicus), P57756 (protein) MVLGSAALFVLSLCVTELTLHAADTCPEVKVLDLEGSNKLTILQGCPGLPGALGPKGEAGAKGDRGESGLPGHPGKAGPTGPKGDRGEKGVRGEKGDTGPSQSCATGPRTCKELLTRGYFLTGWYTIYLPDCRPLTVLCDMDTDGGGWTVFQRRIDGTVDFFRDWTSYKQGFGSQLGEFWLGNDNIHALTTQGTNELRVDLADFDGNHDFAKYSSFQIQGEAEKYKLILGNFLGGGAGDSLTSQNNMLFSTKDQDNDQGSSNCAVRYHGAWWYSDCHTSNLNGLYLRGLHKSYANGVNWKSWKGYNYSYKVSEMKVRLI", -0.085],
  ["SJA (Sophora japonica) (protein) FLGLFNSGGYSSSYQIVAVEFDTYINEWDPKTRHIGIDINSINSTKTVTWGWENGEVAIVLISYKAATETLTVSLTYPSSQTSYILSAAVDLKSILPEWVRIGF", -0.118],
  ["DCIR1 (Mus musculus), Q9QZ15 (protein) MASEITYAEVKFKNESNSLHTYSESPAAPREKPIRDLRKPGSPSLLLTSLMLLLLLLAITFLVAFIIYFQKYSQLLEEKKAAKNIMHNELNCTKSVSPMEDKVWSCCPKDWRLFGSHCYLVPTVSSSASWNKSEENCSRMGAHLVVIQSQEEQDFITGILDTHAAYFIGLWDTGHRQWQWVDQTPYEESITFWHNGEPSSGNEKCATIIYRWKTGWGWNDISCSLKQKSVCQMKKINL", 1.01]
]}

These entries and their values trace back to the supplement of paper PMC8728848.
